Test system: AR 1.0 cells
Assay: Potentiation index with doxorubicin titration
Type: cell-based, mouse
Conditions: Table C1, RMA 50 nM
TEST_READOUT: Potentiation Index at RMA concentration 50 nM

>  <COMPOUND_STRING>
COc1cc(CN(C)CCc2ccc(NC(=O)c3ccccc3NC(=O)c3cnc4ccccc4c3)cc2)ccc1O

>  <NUMERIC_VALUE>
60

$$$$
>  <COMPOUND_STRING>
COc1ccc(CN(C)CCc2ccc(NC(=O)c3ccccc3NC(=O)c3cnc4ccccc4c3)cc2)cc1OC

>  <NUMERIC_VALUE>
97

$$$$
>  <COMPOUND_STRING>
O=C(Nc1ccccc1C(=O)Nc1ccc(CCN2CCc3cc4c(cc3C2)OCO4)cc1)c1cnc2ccccc2c1

>  <NUMERIC_VALUE>
37

$$$$
